B1: SMOC2 (parent)
chain: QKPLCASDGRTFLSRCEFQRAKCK

Variants of: B1
Assay: protein stability index of a GFP-peptide fusion (GPS, HEK-293T) (PSI 1-6); higher = more stable;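 further: lentivirally expressed fusions sorted by FACS into six bins by GFP to DsRed ratio, PSI derived from sequencing read proportions per bin multiplied by bin number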
Conditions: c terminus: a fixed tail appended
Note to self: values exactly at 3 are True. So protein stability index at or above 3 is True, below is False.

In [3]: df
Out[3]:
    alteration  assigned_label
 0         P3H           False
 1        K22E           False
 2        K24R           False
 3         G9C           False
 4        R20I            True
 5         S7H           False
 6        F12T            True
 7        L13V           False
 8         K2R            True
 9         P3I           False
10         P3F           False
11         D8Q           False
12        K24P           False
13         P3L           False
14        T11F           False
15        R20F           False
16        K24W           False
17        F12H            True
18        T11W           False
19        R15K            True
20         Q1P           False
21         Q1H           False
22        R15E            True
23         A6P            True
24        L13Q            True
25        E17N            True
26        A21Q            True
27        C23H            True
28        K22G            True
29         C5N            True
30        L13K            True
31        S14M            True
